Reference source for all entries: patent US9193687B2

- System: CCRF-CEM/Taxol
- procedure-details: In vitro cytotoxicity, XTT assay, taxol-resistant subline
- particulars: Homo sapiens, CCRF-CEM, 72 h, read-out: Cytotoxicity IC50, CCRF-CEM/Taxol
Would you mind telling me the reported pIC50 of each entry?
Give bare numbers, as −log10 of the molar value.

Ask | Item "Cc1ccc(Nc2c3ccccc3nc3ccccc23)cc1NC(=O)Oc1ccc(N(CCCl)CCCl)cc1" has what recorded pIC50?
Reply | 6.66

Ask | Again, but for "Cc1ccc(NC(=O)Nc2ccc(N(CCCl)CCCl)cc2)cc1Nc1c2cccc(C)c2nc2c(C(=O)NCCN(C)C)cccc12"
Reply | 6.74

Ask | Again, but for "O=C(Nc1cc(CO)cc(Nc2c3ccccc3nc3ccccc23)c1)Oc1ccc(N(CCCl)CCCl)cc1"
Reply | 6.85

Provide the reported pIC50 of each entry below, same order.
1. COc1ccc(Nc2c3ccccc3nc3c(C)cccc23)cc1NC(=O)Oc1ccc(N(CCCl)CCCl)cc1
2. COc1ccc(Nc2c3ccccc3nc3c(C)cccc23)cc1NC(=O)Nc1ccc(N(CCCl)CCCl)cc1
3. CCOC(=O)Nc1cc(COC(=O)Oc2ccc(N(CCCl)CCCl)cc2)cc(Nc2c3ccccc3nc3ccccc23)c1
4. COc1ccc(Nc2c3ccccc3nc3ccccc23)cc1NC(=O)Nc1ccc(N(CCCl)CCCl)cc1
5. O=C(Nc1ccc(N(CCCl)CCCl)cc1)Nc1c2ccccc2nc2ccccc12
6. Cc1cc(NNC(=O)Nc2ccc(N(CCCl)CCCl)cc2)c2ccccc2n1
7. O=C(NNc1cc(-c2ccccc2)nc2cc3c(cc12)OCO3)Nc1ccc(N(CCCl)CCCl)cc1

Reply |
7.52
8.00
6.29
7.52
6.41
5.74
6.24

###

- Tested on: lung cancer H1299
- procedure-details: cells
- particulars: read-out: Cytotoxicity IC50, H1299; Table 2
measure: IC50
Don't forget the unit after the number, please.

Ask | Item N.N.[Cl][Pt][Cl] [Cisplatin, reference compound] has what recorded IC50?
Reply | 13.6 µM

###

- Test system: Human mammary carcinoma (MX-1) tumor cells
- procedure-details: In vitro cytotoxicity, SRB assay, 72-hr incubation
- particulars: read-out: Cytotoxicity IC50, MX-1; Table 1; SRB, 72-hr incubation
measure: pIC50
Give bare numbers, as −log10 of the molar value.

Examples with their reported pIC50 follow.
Ask | Item "Cc1ccc(Nc2c3ccccc3nc3ccccc23)cc1NC(=O)Nc1ccc(N(CCCl)CCCl)cc1" has what recorded pIC50?
Reply | 6.24

Ask | Again, but for "Cc1cccc2c(Nc3cc(COC(=O)Nc4ccc(N(CCCl)CCCl)cc4)cc(NC(=O)OCC(C)C)c3)c3ccccc3nc12"
Reply | 5.22

Shift focus to the following entry.
Ask | Item "CC(C)COC(=O)Nc1cc(COC(=O)Nc2ccc(N(CCCl)CCCl)cc2)cc(Nc2c3ccccc3nc3ccccc23)c1" has what recorded pIC50?
Reply | 5.95

###

- Tested on: CCRF-CEM/Taxol
- procedure-details: In vitro cytotoxicity, XTT assay, taxol-resistant subline
- particulars: Homo sapiens, CCRF-CEM, 72 h, read-out: Cytotoxicity IC50, CCRF-CEM/Taxol
measure: IC50 (nM)
One number for each entry, in nM.

Ask | Item CC(=O)O[C@H]1C(=O)[C@@]2(C)[C@H]([C@H](OC(=O)c3ccccc3)[C@]3(O)C[C@H](OC(=O)[C@H](O)[C@@H](NC(=O)c4ccccc4)c4ccccc4)C(C)=C1C3(C)C)[C@]1(OC(C)=O)CO[C@@H]1C[C@@H]2O [Taxol, reference compound] has what recorded IC50?
Reply | 430

Ask | Again, but for "Cc1ccc(Nc2c3ccccc3nc3c(C)cccc23)cc1NC(=O)Oc1ccc(N(CCCl)CCCl)cc1"
Reply | 170

New cases:
Ask | Item "Cc1ccc(NC(=O)Nc2ccc(N(CCCl)CCCl)cc2)cc1Nc1c2ccccc2nc2c(C)cccc12" has what recorded IC50?
Reply | 20
